- TARGET_OR_SYSTEM: UniProt Q9NYK1
- Sequence (Q9NYK1 27-1049): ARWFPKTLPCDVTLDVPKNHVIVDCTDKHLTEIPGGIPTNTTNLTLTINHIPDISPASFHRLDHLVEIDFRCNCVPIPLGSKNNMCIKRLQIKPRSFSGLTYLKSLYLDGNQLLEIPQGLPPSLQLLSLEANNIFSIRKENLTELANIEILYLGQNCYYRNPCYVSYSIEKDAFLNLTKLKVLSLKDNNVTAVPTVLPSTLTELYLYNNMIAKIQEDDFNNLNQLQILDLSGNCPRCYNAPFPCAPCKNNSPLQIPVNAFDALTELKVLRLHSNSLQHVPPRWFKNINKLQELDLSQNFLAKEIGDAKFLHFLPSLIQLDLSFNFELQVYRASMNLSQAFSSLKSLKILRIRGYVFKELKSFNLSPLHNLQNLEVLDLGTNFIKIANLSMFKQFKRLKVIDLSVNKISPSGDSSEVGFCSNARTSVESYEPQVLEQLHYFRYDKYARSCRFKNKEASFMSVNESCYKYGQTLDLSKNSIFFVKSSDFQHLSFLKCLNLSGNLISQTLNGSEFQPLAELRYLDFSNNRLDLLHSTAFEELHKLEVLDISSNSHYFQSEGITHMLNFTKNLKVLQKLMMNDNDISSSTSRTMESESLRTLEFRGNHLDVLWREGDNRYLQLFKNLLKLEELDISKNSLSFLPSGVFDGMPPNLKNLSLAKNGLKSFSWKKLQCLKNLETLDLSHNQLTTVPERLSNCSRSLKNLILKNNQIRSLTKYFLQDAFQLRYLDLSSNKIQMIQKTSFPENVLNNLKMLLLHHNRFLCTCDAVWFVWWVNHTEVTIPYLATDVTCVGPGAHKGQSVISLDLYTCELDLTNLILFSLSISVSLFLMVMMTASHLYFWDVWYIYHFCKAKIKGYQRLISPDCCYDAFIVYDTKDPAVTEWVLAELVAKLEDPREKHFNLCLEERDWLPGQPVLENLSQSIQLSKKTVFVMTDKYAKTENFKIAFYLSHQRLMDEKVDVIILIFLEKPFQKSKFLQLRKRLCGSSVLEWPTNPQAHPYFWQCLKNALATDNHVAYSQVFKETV
- METHOD_SUMMARY: TLR7 inhibition reporter assay (HEK-Blue SEAP)
- Format: cell-based
- PARTICULARS: HEK-Blue cells overexpressing human TLR7, gardiquimod 7.5 μM stimulation, SEAP reporter
Strictly below 2 nM in IC50: MET. Otherwise: NOT MET.

# count of solved cases: 10
compound="CNC1CCC(c2ccc3[nH]c(-c4cn(C)c5ncccc45)c(C(C)C)c3n2)CC1 (stereo not drawn)" target_or_system="UniProt Q9NYK1" assigned_category=MET
compound="COc1cc(-c2[nH]c3ccc(C4CCC(NC(C)C)CC4)nc3c2C(C)C)cn2ncnc12 (stereo not drawn) [Example 167]" target_or_system="UniProt Q9NYK1" assigned_category=MET
compound="CC(C)c1c(-c2cn(C)c3ncccc23)[nH]c2ccc(C3CCC(N4CC5(C4)CS(=O)(=O)C5)CC3)nc12 (stereo not drawn) [Example 255]" target_or_system="UniProt Q9NYK1" assigned_category=MET
compound="Cc1cc(-c2[nH]c3ccc(C4CCC(NC5COC5)CC4)nc3c2C(C)C)cc(C)n1 (stereo not drawn) [Example 287]" target_or_system="UniProt Q9NYK1" assigned_category="NOT MET"
compound="CC(C)c1c(-c2cn(C)c3ncccc23)[nH]c2ccc(C3CCC(NC4CCOCC4)CC3)nc12 (stereo not drawn) [Example 267]" target_or_system="UniProt Q9NYK1" assigned_category=MET
compound=COc1ncnc(OC)c1CN(C)C1CCN(c2ccc3[nH]c(-c4cn5ncnc5c(C)c4C)c(C(C)C)c3n2)CC1 target_or_system="UniProt Q9NYK1" assigned_category="NOT MET"
compound=COCCN1CCN(c2ccc3[nH]c(-c4cc(OC)c5ncnn5c4)c(C(C)C)c3n2)CC1 target_or_system="UniProt Q9NYK1" assigned_category="NOT MET"
compound=Cc1c(-c2[nH]c3ccc(N4CCN(C)CC4)nc3c2C(C)C)cn2ncnc2c1C target_or_system="UniProt Q9NYK1" assigned_category=MET
compound=Cc1c(-c2[nH]c3ccc(N4CCC(N(C)Cc5ncnn5C)CC4)nc3c2C(C)C)cn2ncnc2c1C target_or_system="UniProt Q9NYK1" assigned_category="NOT MET"
compound="CC(C)c1c(-c2cn(C)c3ncccc23)[nH]c2ccc(C3CCC(NCC4(S(C)(=O)=O)CC4)CC3)nc12 (stereo not drawn) [Example 236]" target_or_system="UniProt Q9NYK1" assigned_category="NOT MET"

Next:
Problem: Could you please tell me whether IC50 recorded for CCN1CCN(c2ccc3[nH]c(-c4cc(OC)c5ncnn5c4)c(C(C)C)c3n2)CC1 is less than 2 nM?
Solution: MET

Taken from patent US10544143B2.
